B1: CDKN1A (parent)
chain: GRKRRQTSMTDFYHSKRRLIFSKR

variants of: B1; assay: protein stability index of a GFP-peptide fusion (GPS, HEK-293T) (PSI 1-6); higher = more stable; conditions: c terminus: a fixed tail appended;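 further: lentivirally expressed fusions sorted by FACS into six bins by GFP to DsRed ratio, PSI derived from sequencing read proportions per bin multiplied by bin number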
Label YES for high-side protein stability index (at or above 3) and NO for low-side protein stability index (below it).

>>> assigned_label("R17W")
"NO"
>>> assigned_label("S15A")
"NO"
>>> assigned_label("I20A")
"YES"

API: above_or_equal(metric=protein stability index, cutoff=3) for item `R2N` NO

Decide: protein stability index of `Y13K` >= 3? NO

Kindly determine if protein stability index recorded for `R17C` is above or exactly 3. NO
